# solubility thermodynamic listing for each entry below
- ASSAY INFO: Thermodynamic solubility in PBS pH 7.4 and in 5% HSA in PBS
- Format: physicochemical
- CONDITION LABEL: aqueous buffer, thermodynamic from solid; PBS pH 7.4, saturated, LC/MS; read-out: Thermodynamic solubility in PBS pH 7.4
- Procedure: The process was initiated by adding 1 mL of defined buffer to about 1 mg of the solid compound. The solutions were mixed for at least 15 hours. If there was no undissolved substance in the solution visible, an additional portion of the solid compound was added and the solution was further mixed for at least 15 hours. This step was repeated until a saturated solution in equilibrium was achieved; excess solid was clearly visible. The total mixing time until equilibrium should exceed 40 hours. […]
Structures can show the parent of a compound that is named as a salt.

| COMPOUND | solubility thermodynamic / µg/mL |
| --- | --- |
| CCNC(=O)CCC/C=C\C[C@@H]1[C@@H](/C=C/[C@@H](O)CCc2ccccc2)[C@H](O)C[C@@H]1O [Bimatoprost] | 1230 |
| CNCC(O)c1ccc(OC(=O)C(C)(C)C)c(OC(=O)C(C)(C)C)c1 (stereo not drawn) [Dipivefrin HCl] | 2340 |
| CC(=O)O[C@H]1C[C@@]2(C)[C@@H](C[C@@H](O)[C@H]3[C@@]4(C)CC[C@@H](O)[C@@H](C)[C@@H]4CC[C@@]32C)/C1=C(\CCC=C(C)C)C(=O)O [Fusidic Acid] | 483 |
